- Tested on: P32-ISH (Burkitt's Lymphoma)
- assay: combination Emax (second highest fraction inhibited in the dose matrix, 72 h); higher = more inhibition; extreme values may be limits of the assay
compounds and their reported combination Emax

In: Quick one: combination Emax for CC(=O)c1c(C)c2cnc(Nc3ccc(N4CCNCC4)cn3)nc2n(C2CCCC2)c1=O [Palbociclib] + Cn1cnc2c(F)c(Nc3ccc(Br)cc3Cl)c(C(=O)NOCCO)cc21 [Selumetinib] (first compound max 10 µM, 7x7, partner max 10 µM) ?
Out: 0.699

In: Which combination Emax is listed for CC1(C)CCC(CN2CCN(c3ccc(C(=O)NS(=O)(=O)c4ccc(NCC5CCOCC5)c([N+](=O)[O-])c4)c(Oc4cnc5[nH]ccc5c4)c3)CC2)=C(c2ccc(Cl)cc2)C1 [Venetoclax] + Cn1cnc2c(F)c(Nc3ccc(Br)cc3Cl)c(C(=O)NOCCO)cc21 [Selumetinib] (first compound max 1 µM, 7x7, partner max 3 µM) ?
Out: 0.239

In: // returns reported combination Emax for input Cc1c2c(nn1C)CSCc1cc(n(C)n1)CSc1cc(c3ccccc3c1)OCCCc1c(C(=O)O)n(C)c3c-2c(Cl)ccc13 [AZD5991] + C1CN(CCC1(C(=O)N[C@@H](CCO)C2=CC=C(C=C2)Cl)N)C3=NC=NC4=C3C=CN4 [Capivasertib] (first compound max 1 µM, 7x7, partner max 3 µM)
Out: 1

In: // combination Emax lookup, key: Cc1c2c(nn1C)CSCc1cc(n(C)n1)CSc1cc(c3ccccc3c1)OCCCc1c(C(=O)O)n(C)c3c-2c(Cl)ccc13 [AZD5991] + Cc1cc2ncnn2cc1Nc1ncc2c(n1)n(C1CCOCC1)c(=O)n2C [AZD7648] (first compound max 1 µM, 7x7, partner max 10 µM)
Out: 1

In: Looking for the measured combination Emax of CN(CCO)CC[C@H](CSc1ccccc1)Nc1ccc(S(=O)(=O)NC(=O)c2ccc(N3CCC([C@@H](O)c4ccccc4-c4ccc(Cl)cc4)CC3)cc2)cc1S(=O)(=O)C(F)(F)F [AZD4320] + Cc1cc2ncnn2cc1Nc1ncc2c(n1)n(C1CCOCC1)c(=O)n2C [AZD7648] (first compound max 1 µM, 7x7, partner max 10 µM) , can you help?
Out: 0.193

In: Item under review: Cc1nc(Nc2ncc(C(=O)Nc3c(C)cccc3Cl)s2)cc(N2CCN(CCO)CC2)n1 [Dasatinib] + CC(=O)Nc1cccc(-n2c(=O)n(C3CC3)c(=O)c3c(Nc4ccc(I)cc4F)n(C)c(=O)c(C)c32)c1 [Trametinib] (first compound max 2 µM, 7x7, partner max 1 µM) . Reported combination Emax?
Out: 0.411

In: Item under review: COc1cc2ncnc(Nc3ccc(F)c(Cl)c3)c2cc1OCCCN1CCOCC1 [Gefitinib] + CC(C)n1c(=O)n(C)c2cnc3cc(F)c(-c4ccc(OCCCN5CCCCC5)nc4)cc3c21 [AZD1390] (first compound max 10 µM, 7x7, partner max 0.3 µM) . Reported combination Emax?
Out: 0.333
